# Lookup of reported TGI keyed by entry
system: SR leukemia; assay: NCI tumour cell line growth inhibition, 48 h

Some compounds with known TGI results, for comparison:
Compound	Measurement
CC(C)(C)OC(=O)N1CCC(NC(=O)NC2CCN(C(=O)OC(C)(C)C)CC2)CC1	> 100 µM
COc1ccc2c(c1)C(=O)[C@@](Nc1ccc(C=O)cc1)(OC)[C@@](OC)(c1ccc([N+](=O)[O-])cc1)O2	> 10 µM
COC(=O)C1SC[C@H]2C(=O)N(c3ccccc3)C(=O)N12 (some centres undefined)	> 100 µM

Data request: Answer briefly: TGI recorded on SR leukemia for `N.N.NCCCCCN.O=C([O-])CC(=O)[O-].O=C([O-])CC(=O)[O-].[Pt+4].[Pt+4]`
Data returned: > 100 µM

* * *

test system: XF 498 CNS; test: NCI tumour cell line growth inhibition, 48 h
Assay endpoint: TGI

O=C(COC(=O)c1cccc2c(=O)c3ccccc3[nH]c12)Nc1ccc(S(=O)(=O)Nc2ncccn2)cc1 > 100 µM

Data request: State, in one line, measured TGI of `COC(=O)c1ccc(/C=C/S(=O)(=O)c2ccccc2)cc1`
Data returned: > 100 µM

Data request: State, in one line, measured TGI of `CCOC(=O)/C=C/c1c[nH]c(=O)[nH]c1=O`
Data returned: > 75 µM

Data request: State, in one line, measured TGI of `COc1ccc(OCC(C)(C)O)cc1`
Data returned: > 100 µM

Data request: State, in one line, measured TGI of `CCC(C)(C)NS(=O)(=O)c1ccccc1`
Data returned: > 100 µM

Data request: State, in one line, measured TGI of `N/C(=N\N=C\c1ccc(O)c(O)c1)NO`
Data returned: > 100 µM

* * *

# Lookup of reported TGI keyed by entry
test system: DU-145 prostate; assay: NCI tumour cell line growth inhibition, 48 h

Some compounds with known TGI results, for comparison:
Compound	Target or test system	TGI
COc1ccc(-c2nc(SC)n(C3OC(COC(C)=O)C(OC(C)=O)C(OC(C)=O)C3OC(C)=O)c(=O)c2C#N)cc1 (stereo unspecified)	DU-145 prostate	> 100 µM
O=C1CSC(c2cccc(Oc3ccccc3)c2)N1c1cccc(Cl)c1Cl (stereo unspecified)	DU-145 prostate	> 100 µM
c1ccc(N2N=C3N(c4ccccc4)C2N3c2ccccc2)cc1	DU-145 prostate	> 100 µM

Data request: Answer briefly: TGI recorded on DU-145 prostate for `NS(=O)(=O)c1ccc(N2C(=O)C(=O)N(c3ccccc3)C2=S)cc1`
Data returned: > 100 µM

Data request: Answer briefly: TGI recorded on DU-145 prostate for `CN(/N=C/c1ccccc1C(=O)O)C1=NCCCCN1`
Data returned: > 100 µM

Data request: Answer briefly: TGI recorded on DU-145 prostate for `S=C1SCN(C2CCCCCCCCCCC2)CN1C1CCCCCCCCCCC1`
Data returned: > 100 µM

Data request: Answer briefly: TGI recorded on DU-145 prostate for `COc1cc2c(cc1OC)-c1ncc3cc(OC)c(OC)cc3c1C2`
Data returned: > 50 µM

Data request: Answer briefly: TGI recorded on DU-145 prostate for COc1cc2c3cc1Oc1c(OC)c(OC)cc4c1C(Cc1ccc(O)c(c1)-c1cc(ccc1OC)CC3N(C)CC2)N(C)CC4 (stereo unspecified)
Data returned: > 100 µM

Data request: Answer briefly: TGI recorded on DU-145 prostate for `CCOC(=O)c1csc(-c2nc(CCNC(=O)c3ccccc3)sc2Cl)n1`
Data returned: > 100 µM

Data request: Answer briefly: TGI recorded on DU-145 prostate for `COc1ccc(Br)c(C=Nc2cccc3cc(OC)c(OC)cc23)c1`
Data returned: > 100 µM

Data request: Answer briefly: TGI recorded on DU-145 prostate for `CC(C)=CCc1c(O)c(C(=O)CC(C)C)c(O)c2c(-c3ccccc3)cc(=O)oc12`
Data returned: > 50 µM
